- Measured on: Protein kinase 7 (PK7), Plasmodium falciparum 3D7 (PF3D7_0213400)
- Method summary: inhibition of Plasmodium PK7 catalytic activity – biochemical, TCAMS antimalarial set, Kinase-Glo luminescence (AID 1159587)
- Assay context: recombinant PfPK7, Kinase-Glo ATP depletion luminescence
Calls of active or inactive are those of the source. How the calls were made is not given here.
Measurement type: outcome

In [3]: df
Out[3]:
                            smiles_notation  assay_result
0  CCCCCCOc1ccc2ccccc2c1CNCCCCCCNCc1c(OCCCCCC)ccc2ccccc12      inactive
1  O=C(Nc1ccc(-c2nc3ccccc3[nH]2)cc1)C1CCN(Cc2ccccc2)CC1      inactive
2  CCN1CCN(c2ccc(Nc3c4ccccc4nc4ccccc34)cc2)CC1      inactive
3  CCNC(C)(C)CN(Cc1ccc(-c2ccc(C(F)(F)F)cc2)cc1)C(=O)Cn1c(CCc2cccc(F)c2F)nc(=O)c2ccccc21      inactive
4           CC(C)(C)c1ccc(-c2nnc(N)nc2N)cc1      inactive
5  O=C(Nc1cccc(-c2nn3ccccc3c2-c2ccnc(Nc3cccc(-c4cnco4)c3)n2)c1)C1CCCCC1      inactive
6  COc1ccc(CN2CCN(CC(=O)Nc3cc(Cl)ccc3-n3cncn3)CC2)cc1F      inactive
7  CNC(=O)c1ccccc1Nc1nc(Nc2ccc(N3CCN(C)CC3)nc2)ncc1C      inactive
8  Cc1[nH]c(C)c(-c2ccc(Oc3ccc(F)cc3)cc2)c(=O)c1Br      inactive

Reference for the values: PubChem BioAssay
